Every entry's value here was drawn from patent US9862679B2.

Parameter: Ki. Scope: all listed entries.
- Measured On: dopamine transporter (DAT) (Rattus norvegicus (Rat))
- Sequence (P23977 whole entry): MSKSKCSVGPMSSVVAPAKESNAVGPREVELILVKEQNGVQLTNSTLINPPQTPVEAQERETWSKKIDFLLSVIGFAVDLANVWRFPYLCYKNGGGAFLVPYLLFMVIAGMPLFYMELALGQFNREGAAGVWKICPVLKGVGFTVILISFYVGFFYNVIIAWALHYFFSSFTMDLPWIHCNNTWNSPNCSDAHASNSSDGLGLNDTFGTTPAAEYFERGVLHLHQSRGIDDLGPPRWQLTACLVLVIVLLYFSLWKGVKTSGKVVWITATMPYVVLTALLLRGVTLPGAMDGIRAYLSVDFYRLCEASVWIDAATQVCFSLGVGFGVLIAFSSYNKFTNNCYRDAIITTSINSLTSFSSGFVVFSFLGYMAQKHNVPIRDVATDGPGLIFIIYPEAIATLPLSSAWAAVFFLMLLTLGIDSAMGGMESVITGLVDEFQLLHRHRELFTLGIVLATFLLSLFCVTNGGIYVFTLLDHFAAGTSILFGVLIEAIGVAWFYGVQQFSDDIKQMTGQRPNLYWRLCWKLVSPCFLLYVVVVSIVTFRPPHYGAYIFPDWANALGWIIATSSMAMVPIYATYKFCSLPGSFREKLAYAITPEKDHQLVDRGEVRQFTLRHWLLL
- Test Description: Dopamine Transporter Binding Assay ([3H]WIN 35428, rat striatal membranes)
- Experimental Parameters: rat brain membranes; Table 1 thioacetamides and sulfinylacetamides; read-out: Ki (nM) ± S.E.M. DAT
The reply should contain only the number, in nM.

Below: 5 compounds and their reported Ki.
NC(=O)C[S+]([O-])C(c1ccccc1)c1cccc(Br)c1 (stereo not drawn) [Compound 3e] ... 550
O=C(CSC(c1ccccc1)c1ccccc1)NCC1CC1 [Compound 2o] ... 13900
NC(=O)C[S+]([O-])C(c1ccc(C(F)(F)F)cc1)c1ccc(C(F)(F)F)cc1 (stereo not drawn) [Compound 3b] ... 35400
CCCCNC(=O)CSC(c1ccc(F)cc1)c1ccc(F)cc1 [Compound 2s] ... 6470
CCCNC(=O)CSC(c1ccccc1)c1ccccc1 [Compound 2k, 2-(Benzhydrylthio)-N-propylacetamide] ... 20700

Find the recorded Ki belonging to CCCCNC(=O)CSC(c1ccc(Br)cc1)c1ccc(Br)cc1 [Compound 2t] and report it.
729

Record request: Ki value, item O=C(C[S+]([O-])C(c1ccc(Br)cc1)c1ccc(Br)cc1)NCCCc1ccccc1 (stereo not drawn) [Compound 3g]
1290

Given the entry CCCNC(=O)CSC(c1ccc(F)cc1)c1ccc(F)cc1 [Compound 2l] , report its measured Ki.
12000

Returns the measured Ki for the input compound. Input: CCCCNC(=O)CSC(c1ccccc1)c1ccccc1 [Compound 2r, 2-(Benzhydrylthio)-N-butylacetamide]
24000
